Study Target: T1, Proleukin® (aldesleukin) (human, UniProt P60568 21-153, limits assumed)
T1 construct: Variant of human wt IL-2 with C145S (C125S on mature IL-2); also called IL-2 (Proleukin®); human IL-2 (Proleukin)
T1 sequence (P60568 other isoform, or with tags, fused parts or gaps limits assumed): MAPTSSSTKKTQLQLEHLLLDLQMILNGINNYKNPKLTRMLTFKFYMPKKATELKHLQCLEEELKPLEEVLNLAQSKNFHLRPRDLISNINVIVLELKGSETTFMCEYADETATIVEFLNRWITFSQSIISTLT
Experiment: ELISA, coated Proleukin, HEK293F supernatant 1:2
Label rule, in plain words: ELISA value (wash 3x every hour for 4 HRS) of 7000 luminescence signal and up is Fulfilled, under 7000 luminescence signal is Not fulfilled.

| Binder | Cat |
| --- | --- |
| Antibody No: 22 (antibody, human IgG1, kappa, N297A, V domains shown, VK M33L; HEK293F supernatant) VH: EVQLVQSGAEVKKPGESLKISCKGSGYAFSNYLIEWVRQMPGKGLEWMGVINPGSGGTNYNEKFKGQVTISADKSISTAYLQWSSLKASDTAMYYCARWRGEGYYAYYDVWGQGTTVTVSS VL: AIRLTQSPSSFSASTGDRVTITCKASQSVDYQGDSYLNWYQQKPGKAPKLLIYAASNLESGVPSRFSGSGSGTDFTLTISSLQSEDFATYYCQQSNEDPYTFGGGTKVEIKR | Not fulfilled |
| Antibody No: 18 (antibody, human IgG1, kappa, N297A, V domains shown, VK A50S; HEK293F supernatant) VH: EVQLVQSGAEVKKPGESLKISCKGSGYAFTNYLIEWVRQMPGKGLEWMGVINPGSGGTYYNEKFKGQVTISADKSISTAYLQWSSLKASDTAMYYCARWRGEGYYAYYDVWGQGTTVTVSS VL: AIRLTQSPSSFSASTGDRVTITCKASQSVDYQGDSYMNWYQQKPGKAPKLLIYSASNLESGVPSRFSGSGSGTDFTLTISSLQSEDFATYYCQQSNEDPYTFGGGTKVEIKR | Fulfilled |
| Antibody No: 6 (antibody, human IgG1, kappa, N297A, V domains shown, VK WT; HEK293F supernatant) VH: EVQLVQSGAEVKKPGESLKISCKGSGYAFTNYLIEWVRQMPGKGLEWMGVINPGSGGTNYNEKFKGQVTISADKSISTAYLQWSSLKASDTAMYYCARWRGEGYYAYYDVWGQGTTVTVSS VL: AIRLTQSPSSFSASTGDRVTITCKASQSVDYQGDSYMNWYQQKPGKAPKLLIYAASNLESGVPSRFSGSGSGTDFTLTISSLQSEDFATYYCQQSNEDPYTFGGGTKVEIKR | Not fulfilled |
| Antibody No: 28 (antibody, human IgG1, kappa, N297A, V domains shown, VH N58Y + T30S; VK A50S; HEK293F supernatant; 108930 is kept apart) VH: EVQLVQSGAEVKKPGESLKISCKGSGYAFSNYLIEWVRQMPGKGLEWMGVINPGSGGTYYNEKFKGQVTISADKSISTAYLQWSSLKASDTAMYYCARWRGEGYYAYFDVWGQGTTVTVSS VL: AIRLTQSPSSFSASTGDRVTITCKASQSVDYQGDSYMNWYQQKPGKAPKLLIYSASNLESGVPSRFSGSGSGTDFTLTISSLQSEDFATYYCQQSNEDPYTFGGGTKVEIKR | Fulfilled |
| Antibody No: 30 (antibody, human IgG1, kappa, N297A, V domains shown, VH N58Y + T30S; VK M33L + A50S; HEK293F supernatant) VH: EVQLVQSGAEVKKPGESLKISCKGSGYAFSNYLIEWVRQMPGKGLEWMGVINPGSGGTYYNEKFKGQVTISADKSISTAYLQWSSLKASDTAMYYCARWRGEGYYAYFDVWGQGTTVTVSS VL: AIRLTQSPSSFSASTGDRVTITCKASQSVDYQGDSYLNWYQQKPGKAPKLLIYSASNLESGVPSRFSGSGSGTDFTLTISSLQSEDFATYYCQQSNEDPYTFGGGTKVEIKR | Fulfilled |
